- experiment-notes: Toxicity liver stage against HepG2, at 10uM
- Type: cell-based
- Parameters: test concentration 10 uM, cell line HepG2-A16-CD81EGFP
- applied-conditions: human, HepG2-A16-CD81EGFP cells; read-out: INHIBITION
Reported values of cytotoxicity at 10 µM for individual entries
Entry rule: numbers only, all in %.

Below, 10 molecules whose answers are already recorded.
molecule	cytotoxicity at 10 µM (%)
COCCN(C)C[C@@H]1CN(c2nnc(C(C)C)s2)C[C@@H]1CO	-2.35
CC1CCN(S(=O)(=O)N2CCC(Oc3cnccn3)CC2)CC1	-2.76
Fc1ccc(C2CCCN2Cc2nnnn2C2CC2)cc1 (stereo not given)	15.5
O=C(CCOc1ccccc1)N1CCC(Nc2cccnn2)CC1	-9.29
COCCN(Cc1ccco1)Cc1nc(-c2ccccc2C)no1	6.72
Fc1ccccc1-c1cccc(C2CCCN(C3CCOCC3)C2)n1 (stereo not given)	0.22
O=c1cc(C2CCNCC2)nc(Cc2cccc(Cl)c2)[nH]1	-0.869
Cc1cccc(CN2CCCCC23CCNC3)n1 (stereo not given)	1.49
CC(C)NC1CCN(CCc2ccc3c(c2)CCO3)CC1	-21.8
CC=C(C)C(=O)NS(=O)(=O)c1ccc(C(F)(F)F)cn1	3.95

Lab book: cytotoxicity at 10 µM of CC(C)c1noc(CCC(=O)N(CC2CCOC2)C2CC2)n1 (stereo not given) noted as 8.01

Lab book: cytotoxicity at 10 µM of "Cc1ccc(C(=O)O)cc1S(=O)(=O)N(C)c1cccc(C#N)c1" noted as 10.6

Lab book: cytotoxicity at 10 µM of "CN(Cc1nc2ccccc2[nH]1)C(=O)CN(C)c1ccc(Cl)cn1" noted as -2.66
